- assay system: T1, Flag-PTHR1-YFP (parathyroid hormone receptor 1) expressed in transfected HEK293T cells (human, UniProt Q03431 27-593)
- T1 sequence (looked up): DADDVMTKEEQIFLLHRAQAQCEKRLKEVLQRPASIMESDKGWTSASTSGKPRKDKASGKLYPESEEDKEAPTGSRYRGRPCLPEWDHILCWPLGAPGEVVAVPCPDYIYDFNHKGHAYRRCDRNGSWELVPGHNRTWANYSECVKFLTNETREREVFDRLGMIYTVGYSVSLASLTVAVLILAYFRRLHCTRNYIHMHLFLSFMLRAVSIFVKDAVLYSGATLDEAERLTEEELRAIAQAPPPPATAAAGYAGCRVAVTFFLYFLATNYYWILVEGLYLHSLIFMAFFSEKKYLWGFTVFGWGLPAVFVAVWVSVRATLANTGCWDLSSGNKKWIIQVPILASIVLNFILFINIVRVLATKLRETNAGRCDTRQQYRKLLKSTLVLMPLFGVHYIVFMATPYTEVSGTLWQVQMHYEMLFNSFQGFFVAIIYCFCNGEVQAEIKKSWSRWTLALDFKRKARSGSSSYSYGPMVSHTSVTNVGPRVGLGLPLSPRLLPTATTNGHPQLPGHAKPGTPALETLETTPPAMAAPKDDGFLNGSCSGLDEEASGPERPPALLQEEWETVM
- experiment notes: cell-based or functional assay
assay readout: arrestin 2, plate 26: Emax

Illustrative cases are given below, each with its answer.
• GVAMLQIMHDLAKIKQELELKDSMKKILEDVL [R2-50] = 6.62
• AVAEIQLMHQRAKWELEFELFREFLKLLVDFF [I3 (R1-97)] = 21.5
• GIAVITLMLLRAYLELLEELVKILHELLRRYH [R2-52] = 6.48

Let us move to another entry and its arrestin 2, plate 26: Emax.
State the recorded arrestin 2, plate 26: Emax for this entry: GIAVITLMVLRALLELQEIGRKITLELLKEYI [R2-51]
6.47
